experiment: Standard protocol for determination of kcat and KM (continuous spectrophotometric assay, Acetyl CoA hydrolysis at 235 nm); assay type: biochemical; settings: purified protein; about 23° C.; 20 mM HEPES pH 6.8, 10% ethylene glycol, 0.2 mM acetyl CoA
Doc: threshold 0.9 s⁻¹ (exclusive). Items with Kcat beneath it return label 1; others return label 0.

query: Does this molecule meet the criterion Kcat < 0.9 s⁻¹? SEQ ID NO: 460: GAT polypeptide (protein, 11_3B5, GAT polypeptide) MIEVKPINAEDTYELRHRILRPNQPIEACMFESDLLRGAFHLGGYYRGKLISIASFHQAEHSELQGQKQYQLRGMATLEGYRDQKAGSSLIRHAEQILRKRGADMLWCNARTSASGYYKKLGFSEQGEVFDTPPVGPHILMYKRIT
result: label 0

query: What about SEQ ID NO: 497: GAT polypeptide (protein, 6_1A11, GAT polypeptide) MLEVKPINAEDTYELRHKILRPNQPLEVCMYETDLLRGAFHLGGFYRGKLISIASFHQAEHSDLQGQKQYQLRGMATLEGYRDQKAGSSLIRHAEQILRKRGADMLWCNARTSASGYYRKLGFSEQGEVFETPPVGPHILMYKRLT ?
result: label 1

query: Then what about the molecule SEQ ID NO: 494: GAT polypeptide (protein, 5_2B3, GAT polypeptide) MIEVKPINAEDTYELRHRILRPNQPLEVCMYETDLLRGAFHLGGFYGGKLISIASFHQAEHSDLQGQKQYQLRGMATLEGYRDQKAGSSLIRHAEQILRKRGADMLWCNARTSASGYYKKLGFSEQGEIFETPPVGPHILMYKRIT ?
result: label 0

query: // query: SEQ ID NO: 375: GAT polypeptide (protein, 4B_2H7, GAT polypeptide) MIEVKPINAEDTYEIRHRILRPNQPLEACMYETDLLGGTFHLGGYYRGKLISIASFHQAEHSELEGQKQYQLRGMATLEGYREQKAGSTLIRHAEELLRKKGADLLWCNARTSASGYYKKLGFSEQGGVYGIPPIGPHILMYKKLT
result: label 1

query: Can you check SEQ ID NO: 267: GAT polypeptide (protein, 14_2F11, GAT polypeptide) MIEVKPINAEDTYEIRHRILRPNQPLEACKYETDLLRGAFHLGGYYRGKLVSIASFHQAEHPELEGQKQYQLRGMATLEGYREQKAGSTLIRHAEALLRKKGADLLWCNARTSASGYYKKLGFSEQGEVYDTPPAGPHILMYKKLT next?
result: label 0

query: // repeat for SEQ ID NO: 504: GAT polypeptide (protein, 8_1G2, GAT polypeptide) MIEVKPINAEDTYELRHRVLRPNQPLEVCMYETDLLRGAFHLGGYYRGKLISIASFHQAEHSELQGQKQYQLRGMATLEGYREQKAGSSLIKHAEEILRKRGADLLWCNARTSASGYYKKLGFSEQGEVFETPPVGPHILMYKRLT and report
result: label 0

query: Similarly, SEQ ID NO: 411: GAT polypeptide (protein, 6_7D1, GAT polypeptide) MIEVKPINAEDTYEIRHRILRPNQPLEACMYETDLLRGAFHLGGYYRGKLISIASFHQAEHSELEGQKQYQLRGMATLEGYREQKAGSTLIRHAEELLRKKGADLLWCNARTSASGYYKKLGFSEQGGVYDIPPVGPHILMYKKLT ?
result: label 1

query: And then SEQ ID NO: 400: GAT polypeptide (protein, 6_23H7, GAT polypeptide) MIEVKPINAEDTYEIRHRILRPNQPLEACMYETDLLGGTFHLGGYYRGKLISIASFHQAEHSELEGQKQYQLRGMATLEGYREQKAGSTLIRHAEEILRKKGADLLWCNARTSASGYYKKLGFSEQGGVYDIPPVGPHILMYKKLT , what is it?
result: label 1

query: Next: SEQ ID NO: 473: GAT polypeptide (protein, 1_2D4, GAT polypeptide) MIEVKPINAEDTYELRHRILRPNQPIEACMYESDLLRGSFHLGGFYRGKLISIASFHQAEHSDLQGQKQYQLRGMATLEGYREQKAGSSLIKHAEQLLRKKGADMLWCNARTSAAGYYKRLGFSEHGEIFETPPVGPHILMYKRIT
result: label 0

query: Now consider SEQ ID NO: 458: GAT polypeptide (protein, 11_3A11, GAT polypeptide) MIEVKPINAEDTYELRHKILRPNQPIEVCMYESDLLRGAFHLGGFYRGKLISIASFHQAEHPDLQGQKQYQLRGMATLEGYRDQKAGSSLIKHAEQILRKRGADLLWCNARTSASGYYKKLGFSEQGEVFETPPVGPHILMYKRLT and answer again.
result: label 0

query: Try this molecule next: SEQ ID NO: 414: GAT polypeptide (protein, 6F1, GAT polypeptide) MIEVKPINAEDTYEIRHRILRPNQPLEACMYETDLLGGTFHLGGYYRGKLVCIASFHKAEHSELEGQKQYQLRGMATLDGYREQKAGSTLIRHAEELLRKKGADLLWCNARTSVSGYYEKLGFSEQGEVYDIPPVGPHILMYKKLT
result: label 1

query: Also need SEQ ID NO: 381: GAT polypeptide (protein, 6_14D10, GAT polypeptide) MIEVKPINAEDTYEIRHRILRPNQPLEACMYETDLLGGTFHLGGYYRGKLISIASFHQAEHSELEGHKQYQLRGMATLEEYREQKAGSTLIRHAEELLRKKGADLLWCNARTSASGYYKKLGFSEQGGVYDIPPVGPHILMYKKLT , thanks.
result: label 1
